test: Caspase-3/7 induction in CHO-K1 cells by small molecules, qHTS cell viability counter screen (AID 1346979); details: CellTiter-Fluor fluorescence, 17 h; series mostly up to 92.4 µM; also: % is scaled to controls: 0 for no effect and ±100 for the full control effect; nearly all actives have a fitted effect of over 35% in size
Results filed as inconclusive are left out. Activity calls are given as the source filed them. Calls follow the shape of the dose curve; as a rule, active = well fitted cell-killing curve with a large enough effect in the repeat runs; inconclusive = weak or mixed curves, or effect the other way; inactive = no such curve, though single readings can be large or run the other way.
Quantity: activity change, negative = cytotoxicity

                                    compound                 value_measured
 0  CCn1cc(C(=O)O)c(=O)c2cc(F)c(N3CCN(C)CC3)cc21    6.37% [at 19 µM] (inactive)
 1                  CC1(C)SC(C)(C)SC(C)(C)S1                       inactive
 2                      C=C(C)C(=O)NCCCN(C)C                       inactive
 3                           CCCCCCCCCCCCCCC                       inactive
 4            C=C(C)C(=O)OCCCCCCCCCCCCCCCCCC  -0.104% [at 19 µM] (inactive)
 5  O=C(CCOCCOCCOCCOCCC(=O)Nc1c(I)cc(I)c(C(=O)O)c1I)Nc1c(I)cc(I)c(C(=O)O)c1I                       inactive
 6  CN(C)CCn1nnnc1SCC1=C(C(=O)O)N2C(=O)[C@@H](NC(=O)Cc3csc(N)n3)[C@H]2SC1                       inactive
 7                                CC/C=C\C#N                       inactive
 8   CC(C)CCCC(C)NCCC(C)C (stereo not drawn)                       inactive
 9                            COCCOC(=O)CC#N                       inactive
10              CCCC(C)CO (stereo not drawn)                       inactive
11  CC(C)[N+](C)(C)CC(O)COc1cccc2ccccc12 (stereo not drawn)                       inactive
12  C=CCSCC1Nc2cc(Cl)c(S(N)(=O)=O)cc2S(=O)(=O)N1 (stereo not drawn)                       inactive
